# Assayed Target: hGABAA α1β3γ2 (Homo sapiens, UniProt P14867+P18507+P28472)
# Sequence (P14867 28-456): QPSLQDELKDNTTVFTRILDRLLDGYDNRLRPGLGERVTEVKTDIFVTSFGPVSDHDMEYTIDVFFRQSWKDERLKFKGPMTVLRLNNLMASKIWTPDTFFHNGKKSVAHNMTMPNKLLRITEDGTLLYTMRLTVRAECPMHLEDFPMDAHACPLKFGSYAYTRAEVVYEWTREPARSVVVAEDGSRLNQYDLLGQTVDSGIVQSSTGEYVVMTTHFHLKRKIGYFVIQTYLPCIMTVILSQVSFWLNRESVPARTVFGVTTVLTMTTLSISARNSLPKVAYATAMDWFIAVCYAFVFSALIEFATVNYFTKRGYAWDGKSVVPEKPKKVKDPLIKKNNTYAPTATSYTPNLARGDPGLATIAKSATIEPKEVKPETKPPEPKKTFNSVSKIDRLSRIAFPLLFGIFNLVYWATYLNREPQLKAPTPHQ
# Sequence (P28472 26-473): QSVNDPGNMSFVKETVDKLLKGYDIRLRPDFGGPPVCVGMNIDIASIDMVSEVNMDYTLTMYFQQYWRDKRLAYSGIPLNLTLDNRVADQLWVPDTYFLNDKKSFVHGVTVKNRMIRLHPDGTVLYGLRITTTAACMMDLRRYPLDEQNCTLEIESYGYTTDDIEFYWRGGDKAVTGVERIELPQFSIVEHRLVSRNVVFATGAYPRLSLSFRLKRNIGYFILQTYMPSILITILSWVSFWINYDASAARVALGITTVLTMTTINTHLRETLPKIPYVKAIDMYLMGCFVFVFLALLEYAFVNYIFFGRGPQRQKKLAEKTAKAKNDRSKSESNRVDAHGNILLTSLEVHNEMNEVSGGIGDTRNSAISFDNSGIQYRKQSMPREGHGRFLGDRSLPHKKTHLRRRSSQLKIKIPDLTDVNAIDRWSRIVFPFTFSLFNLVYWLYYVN
# Sequence (P18507 40-475): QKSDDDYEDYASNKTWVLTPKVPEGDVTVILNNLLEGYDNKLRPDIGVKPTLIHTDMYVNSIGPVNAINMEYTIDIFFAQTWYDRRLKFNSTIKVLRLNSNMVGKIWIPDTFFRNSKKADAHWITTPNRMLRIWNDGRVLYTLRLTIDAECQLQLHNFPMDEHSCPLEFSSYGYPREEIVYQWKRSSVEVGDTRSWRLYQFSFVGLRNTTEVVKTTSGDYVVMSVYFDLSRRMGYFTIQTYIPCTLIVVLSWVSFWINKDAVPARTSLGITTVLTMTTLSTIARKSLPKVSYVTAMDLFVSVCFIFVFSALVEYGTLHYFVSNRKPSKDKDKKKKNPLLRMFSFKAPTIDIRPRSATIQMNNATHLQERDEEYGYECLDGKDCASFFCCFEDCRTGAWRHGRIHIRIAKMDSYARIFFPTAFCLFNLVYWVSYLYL
# Protocol: hGABAA α1β3γ2 IonFlux HT Agonist Assay
# Type: cell-based
# Cond: read-out: Normalized Percentage Activation Mean
activation at 0.3 µM below 3% gives NO; activation at 0.3 µM at or above it gives YES.

{"Molecule": "CCCN(CCNC)C(=O)Cc1c(-c2ccc(C)cc2)nc2ccc(C)cn12 [Compound 2]", "Group Label": "NO"}
{"Molecule": "CNCCN(C)C(=O)Cc1c(-c2ccc(C)cc2)nc2ccc(C)cn12 [Compound 1]", "Group Label": "NO"}
{"Molecule": "CCN(CCN(C)C)C(=O)OC1c2nccnc2C(=O)N1c1ccc(Cl)cn1 (stereo not drawn) [Compound 4]", "Group Label": "YES"}
{"Molecule": "CCCN(CCNC)C(=O)Cc1c(-c2ccc(Cl)cc2)nc2ccc(Cl)cn12 [Compound 3]", "Group Label": "NO"}
{"Molecule": "CN(C)CCN(C)C(=O)CC1c2nccnc2C(=O)N1c1ccc(Cl)cn1 (stereo not drawn) [Compound 6]", "Group Label": "NO"}

Okay, now this molecule:
Asked: Exam item: decide whether the reported activation at 0.3 µM for CCN(CCNC)C(=O)CC1c2nccnc2C(=O)N1c1ccc(Cl)cn1 (stereo not drawn) [Compound 5] is at least 3%.
Given back: NO
